# system-name: W318A MOR (Mus musculus, UniProt P42866, W318A)
# Sequence (P42866 whole entry W318A): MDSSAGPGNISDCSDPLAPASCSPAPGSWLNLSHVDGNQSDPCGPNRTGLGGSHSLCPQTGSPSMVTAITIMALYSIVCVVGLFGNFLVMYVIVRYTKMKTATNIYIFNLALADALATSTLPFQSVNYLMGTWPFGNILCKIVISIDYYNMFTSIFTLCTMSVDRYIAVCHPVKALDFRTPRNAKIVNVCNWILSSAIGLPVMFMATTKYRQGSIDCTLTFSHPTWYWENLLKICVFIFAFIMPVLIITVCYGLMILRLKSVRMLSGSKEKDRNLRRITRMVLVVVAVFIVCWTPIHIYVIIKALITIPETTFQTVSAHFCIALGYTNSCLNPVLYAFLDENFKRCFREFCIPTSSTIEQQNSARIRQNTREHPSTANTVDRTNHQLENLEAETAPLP
# experiment-notes: Competition binding to site-directed mutated MOR W318A
# experimental-parameters: read-out: W318A MOR IC50; ± SEM; transient CHO cells
quantity-kind: IC50

Q. Answer with the recorded IC50 for the compound listed here: `O=C(N[C@H]1CC[C@@]2(O)[C@H]3Cc4ccc(O)c5c4[C@@]2(CCN3CC2CC2)[C@H]1O5)c1cc2ccccc2cn1`
A. > 1000 nM
